Tested on: tobacco budworm (Heliothis virescens [Fabricius])
protocolText: surface-treated diet test against the tobacco budworm
Assay type: in vivo
statedConditions: tobacco budworm second instar larvae; surface-treated diet; 0.25 millimoles of candidate insecticide on the surface of the diet; five-day exposure; compared to total number of insects infested
I'd be grateful if you could share measured Percent Mortality for these entries.

So, CCn1nnc(-c2ccc(CN3CCC(C(OC(=O)Nc4ccc(Cl)cc4)c4ccc(F)c(F)c4)CC3)cc2)n1 (centres unmarked) ? Its Percent Mortality was 100%

Reported Percent Mortality of Cn1nnc(-c2ccc(CN3CCC(C(NC(=O)c4ccc([N+](=O)[O-])cc4)c4ccc(OC(F)(F)F)cc4)CC3)cc2)n1 (centres unmarked) : 17%

Lookup result for Cn1nnc(-c2ccc(CN3CCC(C(OC(=O)Nc4ccccc4F)c4ccc(OC(F)(F)F)cc4)CC3)cc2)n1 (centres unmarked) ; measured Percent Mortality: 99%

Lab note: measured Percent Mortality of CC(C)NC(=O)OC(c1ccc(C(F)(F)F)cc1)C1CCN(Cc2ccc(Oc3ccccn3)cc2)CC1 (centres unmarked) was 100%

Short answer for O=C(Nc1cc(F)cc(F)c1)OC(c1ccc(C(F)(F)F)cc1)C1CC[N+]([O-])(Cc2ccc(Oc3ccccn3)cc2)CC1 (centres unmarked) : Percent Mortality was 100%

Per the records, this compound ( O=C(Nc1cc(F)c(F)c(F)c1)OC(c1ccc(C(F)(F)F)cc1)C1CCN(Cc2ccc(Oc3ccccn3)cc2)CC1 (centres unmarked) ) has Percent Mortality equal to 100%

Noted for CCON=Cc1ccc(CN2CCC(C(OC(=O)Nc3ccc(C(F)(F)F)cc3)c3ccc(C(F)(F)F)cc3)CC2)cc1 (centres unmarked) : its Percent Mortality reads 33%

Percent Mortality for CCn1nnc(-c2ccc(CN3CCC(C(OC(=O)Nc4ccc(Cl)c(Cl)c4)c4cc(Cl)cc(Cl)c4)CC3)cc2)n1 (centres unmarked) is 100%

Percent Mortality measured on CCn1nnc(-c2ccc(CN3CCC(C(OC(=O)Nc4ccc(Cl)cc4)c4ccccc4)CC3)cc2)n1 (centres unmarked) = 100%

Per the record, Nc1ccc(CN2CCC(C(OC(=O)Nc3ccc(Cl)cc3)c3ccc(C(F)(F)F)cc3)CC2)cc1 (centres unmarked) has Percent Mortality of 0%

Consider the following items and state reported Percent Mortality for each.
1. Cn1nnc(-c2ccc(CN3CCC(C(NC(=O)c4ccccc4F)c4ccc(OC(F)(F)F)cc4)CC3)cc2)n1 (centres unmarked)
2. Cc1ccc(C(=O)NC(c2ccc(OC(F)(F)F)cc2)C2CCN(Cc3ccc(-c4nnn(C)n4)cc3)CC2)cc1 (centres unmarked)

Response:
1: 0%; 2: 33%

Please look at the items below and tell me Percent Mortality for each one, in order.
1. CCn1nnc(-c2ccc(CN3CCC(C(OC(=O)Nc4ccc(-c5ccccc5)cc4)c4ccc(C(F)(F)F)cc4)CC3)cc2)n1 (centres unmarked)
2. O=C(Nc1cc(F)cc(F)c1)OC(c1ccc(C(F)(F)F)cc1)C1CCN(Cc2ccc(Oc3ccccc3)cc2)CC1 (centres unmarked)

Response:
1: 100%; 2: 100%

###

Kindly state Percent Mortality for each of the entries shown.
Test system: tobacco budworm (Heliothis virescens [Fabricius])
protocolText: surface-treated diet test against the tobacco budworm
Assay type: in vivo
statedConditions: tobacco budworm second instar larvae; surface-treated diet; 0.25 millimoles of candidate insecticide on the surface of the diet; five-day exposure; compared to total number of insects infested
One number for each entry, in %.

// solved cases for Percent Mortality follow
// Percent Mortality value for [O-][N+]1(Cc2ccc(OCC3CC3)cc2)CCC(=C(c2ccc(C(F)(F)F)cc2)c2ccc(C(F)(F)F)cc2)CC1 (stereo not shown) [Compound 98] : 100

// field: Percent Mortality; key: CCCOc1ccc(CN2CCC(=C(c3cccc(C(F)(F)F)c3)c3cccc(C(F)(F)F)c3)CC2)cc1 [Compound 45] ; value = 0

Per the records, this molecule ( COC(=O)N(c1ccc(CN2CCC(C(OC(=O)Nc3cc(F)cc(F)c3)c3ccc(C(F)(F)F)cc3)CC2)cc1)c1ccccn1 (stereo not shown) [Compound 516] ) has Percent Mortality equal to 100

Documented Percent Mortality of O=C(Nc1cc(F)cc(F)c1)OC(c1ccc(C(F)(F)F)cc1)C1CCN(Cc2ccc(-n3cncn3)cc2)CC1 (stereo not shown) [Compound 558] : 17

Noted for FC(F)(F)c1ccc(C(=C2CC3CCCC(C2)N3Cc2ccc(Oc3ccccn3)cc2)c2ccc(C(F)(F)F)cc2)cc1 [Compound 117] : its Percent Mortality reads 100

The molecule listed as CCCOc1ccc(CN2CCC(C(OC(=O)Nc3ccc(F)cc3)c3ccc(Cl)cc3)CC2)cc1 (stereo not shown) [Compound 471] has a reported Percent Mortality of 100

Others:
Given item Cn1nnc(-c2ccc(CN3CCC(C(NC(=O)c4cccc(F)c4)c4ccc(OC(F)(F)F)cc4)CC3)cc2)n1 (stereo not shown) [Compound 327] , the value recorded as its Percent Mortality is 0

###

System: tobacco budworm (Heliothis virescens [Fabricius])
protocolText: surface-treated diet test against the tobacco budworm
Assay type: in vivo
statedConditions: tobacco budworm second instar larvae; surface-treated diet; 0.25 millimoles of candidate insecticide on the surface of the diet; five-day exposure; compared to total number of insects infested
metric: Percent Mortality (%)
One number for each entry, in %.

Query CCn1nnc(-c2ccc(CN3CCC(C(OC(=O)Nc4ccc(Cl)c(C(F)(F)F)c4)c4ccc(C(F)(F)F)cc4)CC3)cc2)n1 (stereo not shown) on tobacco budworm (Heliothis virescens [Fabricius]); Percent Mortality returned: 100

Fill in: tobacco budworm (Heliothis virescens [Fabricius]) Percent Mortality for CCn1nnc(-c2ccc(CN3CCC(C(OC(=O)Nc4ccc(C(F)(F)F)cc4)c4ccccc4)CC3)cc2)n1 (stereo not shown) = 100

Reading of Percent Mortality for "FC(F)(F)c1ccc(C(=C2CCN(Cc3ccccc3)CC2)c2ccccc2)cc1" with tobacco budworm (Heliothis virescens [Fabricius]): 100

Tested on tobacco budworm (Heliothis virescens [Fabricius]), the item COc1ccc(CNC(c2ccc(OC(F)(F)F)cc2)C2CCN(Cc3ccc(-c4nnn(C)n4)cc3)CC2)cc1 (stereo not shown) showed Percent Mortality equal to 100

Tested on tobacco budworm (Heliothis virescens [Fabricius]), the item CN(C)C(=O)Nc1ccc(CN2CCC(C(OC(=O)Nc3cc(F)cc(F)c3)c3ccc(C(F)(F)F)cc3)CC2)cc1 (stereo not shown) showed Percent Mortality equal to 17

Given the molecule COc1ccc(C(=O)NC(c2ccc(OC(F)(F)F)cc2)C2CCN(Cc3ccc(-c4nnn(C)n4)cc3)CC2)cc1 (stereo not shown) and test system tobacco budworm (Heliothis virescens [Fabricius]), the measured Percent Mortality is 67

Record Percent Mortality per entry; entries follow.
1. Cn1nnc(-c2ccc(C[N+]3([O-])CCC(C(OC(=O)Nc4ccc(F)cc4)c4ccc(OC(F)(F)F)cc4)CC3)cc2)n1 (stereo not shown)
2. COc1ccc(CN2CCC(C(OC(=O)Nc3cc(F)cc(F)c3)c3ccc(OC(F)(F)F)cc3)CC2)cc1 (stereo not shown)

Response:
100
17

Hi! Can you tell me Percent Mortality for each of these molecules?
1. CCCOc1ccc(CN2CCC(C(OC(=O)Nc3ccc(C(F)(F)F)cc3)c3ccc(Cl)c(Cl)c3)CC2)cc1 (stereo not shown)
2. Cn1nnc(-c2ccc(CN3CCC(C(NC(=O)Oc4ccc([N+](=O)[O-])cc4)c4ccc(OC(F)(F)F)cc4)CC3)cc2)n1 (stereo not shown)
3. C#CCON=Cc1ccc(CN2CCC(C(OC(=O)Nc3ccc(Cl)cc3)c3ccc(C(F)(F)F)cc3)CC2)cc1 (stereo not shown)

Response:
100
83
100

For each of the items listed, what is its Percent Mortality?
1. CCn1nnc(-c2ccc(CN3CCC(C(OC(=O)Nc4ccc(C(F)(F)F)cc4)c4ccc(C(F)(F)F)cc4)CC3)cc2)n1 (stereo not shown)
2. Cn1nnc(-c2ccc(CN3CCC(C(NCc4ccccc4F)c4ccc(OC(F)(F)F)cc4)CC3)cc2)n1 (stereo not shown)
3. CCCOC(=O)Nc1ccc(CN2CCC(=C(c3ccc(C(F)(F)F)cc3)c3ccc(C(F)(F)F)cc3)CC2)cc1
4. Cn1nnc(-c2ccc(CN3CCC(C(OC(=O)Nc4ccc(C(F)(F)F)cc4)c4ccc(OC(F)(F)F)cc4)CC3)cc2)n1 (stereo not shown)

Response:
[100, 100, 100, 100]

# per-item lookup of Percent Mortality; items listed below
1. Cn1nnc(-c2ccc(CN3CCC(C(Oc4ccc(Cl)cn4)c4ccc(C(F)(F)F)cc4)CC3)cc2)n1 (stereo not shown)
2. O=C(NCc1ccccc1)OC(c1ccc(C(F)(F)F)cc1)C1CCN(Cc2ccc(Oc3ccccn3)cc2)CC1 (stereo not shown)
3. CCn1nnc(-c2ccc(CN3CCC(C(OC(=O)Nc4cccc(C(F)(F)F)c4)c4ccc(Oc5ccccc5)cc4)CC3)cc2)n1 (stereo not shown)
4. COc1ccc(NC(=O)OC(c2ccc(C(F)(F)F)cc2)C2CCN(Cc3ccc(Oc4ccccn4)cc3)CC2)cc1Cl (stereo not shown)
5. Cn1nnc(-c2ccc(CN3CCC(C(NC(=O)Oc4ccc(Cl)cc4)c4ccc(OC(F)(F)F)cc4)CC3)cc2)n1 (stereo not shown)
6. Fc1ccc(C(=C2CCN(Cc3ccccc3)CC2)c2ccc(C(F)(F)F)cc2)cc1

Response:
1: 100; 2: 50; 3: 0; 4: 100; 5: 100; 6: 17
